GI50 values recorded for K562
READOUT_LABEL: GI50

| MOLECULAR_STRING | READOUT_LABEL | REPORTED |
| --- | --- | --- |
| CC1=CC(=O)N(Nc2nc(-c3nccs3)nc3sc(C)c(C)c23)C1=O | GI50 | 532 nM |
| CC1=CC(=O)N(Nc2nc(-c3cccs3)nc3sc(C)cc23)C1=O | GI50 | 2570 nM |
| CC1=CC(=O)N(Nc2nc(-c3ccc[nH]3)nc3sc(C)c(C)c23)C1=O | GI50 | 1100 nM |
| CC1=CC(=O)N(Nc2nc(-c3nccs3)nc3sc(C)cc23)C1=O | GI50 | 1280 nM |
| CC1=CC(=O)N(Nc2nc(-c3cccs3)nc3sc(C)c(C)c23)C1=O | GI50 | 102 nM |

* * *

- TESTED_ON: Receptor-type tyrosine-protein kinase FLT3 (Homo sapiens, UniProt P36888, D835Y)
- ASSAY_PROCEDURE: biochemical
- Description: Inhibition of N-terminal GST-tagged recombinant human wild-type FLT3 (564 to end residues) D835Y mutant expressed in baculovirus infected sf21 cells using Abltide as substrate in presence of [gamma33P]ATP after 10 mins by scintillation counting method
# if measured IC50 < 100 nM: Yes  # else: No

| MOLECULAR_STRING | LABEL_VALUE |
| --- | --- |
| CC1=CC(=O)N(Nc2nc(-c3nccs3)nc3sc(C)c(C)c23)C1=O | Yes |
| CC1=CC(=O)N(Nc2nc(-c3ccc(F)cc3)nc3sc(C)c(C)c23)C1=O | No |
| CC1=CC(=O)N(Nc2nc(-c3ccco3)nc3sc(C)cc23)C1=O | No |
| CC1=CC(=O)N(Nc2nc(-c3nccs3)nc3sc(C)cc23)C1=O | Yes |
| CC1=CC(=O)N(Nc2nc(-c3ccc[nH]3)nc3sc(C)c(C)c23)C1=O | Yes |
| CC1=CC(=O)N(Nc2nc(-c3ccc[nH]3)nc3sc(C)cc23)C1=O | No |
| CC1=CC(=O)N(Nc2nc(-c3ccc(F)cc3)nc3sc(C)cc23)C1=O | No |

src = ChEMBL document CHEMBL4000222
